B1: 5KPH (parent)
chain: EEKRQVKQVAKEKLLEQSPNSKVQVRRVQKQGNTIRVELELRTNGKKENYTVEVERQGNTWTVKRITRT

# Variants of: B1
# ASSAY NOTES: folding stability dG (cDNA display proteolysis); higher = more stable
# MEASUREMENT PARAMETERS: PBS, room temperature
I'd appreciate it if you could supply folding stability dG values for the items below.
Give a bare numeral; the unit kcal/mol is implied.

Q. Given the entry EEKRQVKQVAKEKLLEQSPNSKVQVRRVQKQGNTIRVELELRTNGKKENYTVEVERQGNTWCVKRITRT [T62C] , report its measured folding stability dG.
A. 3.48

Q. Another variant to look at: EEKRQVKQVAKEKLLEQSPNSKVQVRRVQKQGNTIRVELELRTNTKKENYTVEVERQGNTWTVKRITRT [G45T]
A. 3.49

Q. Next entry: EEKRQVKQVAKEKLLEQSPNSKVQVRRVQKQGNTIRVELELRYNGKKENYTVEVERQGNTWTVKRITRT [T43Y]
A. 3.88

Q. And for EEKRQVKQVAKEKLLEQSPNSKVQVRRVQKQGNTIRVELELRTNGKKENYTVEVERQGNTWTVKRPTRT [I66P] ?
A. 1.72

Q. Now this one: EEKRQVQQVAKEKLLEQSPNSKVQVRRVQKQGNTIRVELELRTNGKKENYTVEVERQGNTWTVKRITRT [K7Q]
A. 4.19

Q. Try this variant too: EEKRQVKQVAKEKLLEQSPNSKVQVRRVQKQGNTFRVELELRTNGKKENYTVEVERQGNTWTVKRITRT [I35F]
A. 4.81

Q. Follow-up entry: EEKRQVKQVAKEKLLEQSPNSKVQVRRVQKQGNTIRVELELRTNGKKENYTVEVEAQGNTWTVKRITRT [R56A]
A. 3.25

Q. Consider next the variant ERKRQVKQVAKEKLLEQSPNSKVQVRRVQKQGNTIRVELELRTNGKKENYTVEVERQGNTWTVKRITRT [E2R] in the same way.
A. 3.19

Q. Queued: EEKRQVKQVAKEKLLEQSPNSKVQVRRVQKQGNTIRVELELRTNGKKENYTVEVERQGNTWTVKRIGRT [T67G]
A. 3.01

Q. Param item: EEKRQVKQVAKEKLLEQSPNSKVQVRRVQKQGNTIRVELELRTNGKKENYTVEVERQGNTWTVKRITRA [T69A]
A. 3.68

Q. Same lookup for EEKRQVKQVAKEKLLEPSPNSKVQVRRVQKQGNTIRVELELRTNGKKENYTVEVERQGNTWTVKRITRT [Q17P] , please.
A. 1.82

Q. Try the variant EEKWQVKQVAKEKLLEQSPNSKVQVRRVQKQGNTIRVELELRTNGKKENYTVEVERQGNTWTVKRITRT [R4W]
A. 3.79

Q. Check EEKRQVKQVAKEKLLEQSPNSKVQVRRVQKQGNTIRVEWELRTNGKKENYTVEVERQGNTWTVKRITRT [L39W] too.
A. 2.03

Q. One more variant: EEKRQVKQVAKEKLLEQSPNSKVQVRRVQKQGNTIRVELELITNGKKENYTVEVERQGNTWTVKRITRT [R42I]
A. 4.28

Q. Please do the same for EEKRQVKQVAKEKLLEQSPNSKGQVRRVQKQGNTIRVELELRTNGKKENYTVEVERQGNTWTVKRITRT [V23G] as well.
A. 1.59

Q. Also EEKRQVKQVKKEKLLEQSPNSKVQVRRVQKQGNTIRVELELRTNGKKENYTVEVERQGNTWTVKRITRT [A10K] ?
A. 1.92

Q. Now give it for EEKRQVKQVAKEKLLEQSPNSKVQVRRVQKQGNTIRVELEGRTNGKKENYTVEVERQGNTWTVKRITRT [L41G] too.
A. 2.38

Q. Please give the result for EEKRQVKQVAKEKLLEQSPNSKVQVRRTQKQGNTIRVELELRTNGKKENYTVEVERQGNTWTVKRITRT [V28T] too.
A. 3.24

Q. Another variant to check: EEKRQVKQVAKEKLLEQSPNSKVQVRRVQKQGNTIRVELELRTNGKKINYTVEVERQGNTWTVKRITRT [E48I]
A. 3.52

Q. // same read-out, input: EEKRQVKQVAKEKLLEQSPNSKVQVRRVQKQGNTIRVELELRTNGKKENYTVEVERQGNTWTVKTITRT [R65T]
A. 4.05

Q. What do you get for EEKRQVKHVAKEKLLEQSPNSKVQVRRVQKQGNTIRVELELRTNGKKENYTVEVERQGNTWTVKRITRT [Q8H] ?
A. 3.62

Q. Another variant to look at: EEKRQVKQVAKEKLLEQSPNSKVQVRRVQKQGNTIRVELELRTNGKKENYTVEVERQGCTWTVKRITRT [N59C]
A. 3.22

Q. Would you kindly repeat that for EEKRQVKQVAKEKLLEQSPNSKVQVRRVQKQGNTIRVELELRTNGKKENYTVEVERQGNTWQVKRITRT [T62Q] ?
A. 3.92

Q. Please give the result for EEKRQVKQVAKEKLLEQSKNSKVQVRRVQKQGNTIRVELELRTNGKKENYTVEVERQGNTWTVKRITRT [P19K] too.
A. 3.03

Q. What about EEKRQVKQVAKEKLLEQSPNSKVQVRRVQKQGNTIRSELELRTNGKKENYTVEVERQGNTWTVKRITRT [V37S] ?
A. 0.645

Q. Note, next up: EEKRQVKQVAKEKLLEQSPNSKVQVRRVQKQGNTIRVELELRTNGNKENYTVEVERQGNTWTVKRITRT [K46N]
A. 3.81

Q. Now this one: EEKRQVKQVAKEKLLEQSPNSKVQVRRVQKQGNTIRVELELRTNGKKENYTVEVERQDNTWTVKRITRT [G58D]
A. 3.75

Q. Continue with EEKRQVKQVAKEKLLEQSPNSKVQVRRVQKQGNTIRVELELRTNGKKENYTVEVERQGNTWTIKRITRT [V63I]
A. 3.47

Q. Could you do the same for EEKRQVKQVAKEKLLEQSPNSKVQVRRVQKQGNTIRVELELLTNGKKENYTVEVERQGNTWTVKRITRT [R42L] , please?
A. 4.08

Q. One more variant: EEKRQVKQVAKEKLLEQSPNSKVQVRRVQKQNNTIRVELELRTNGKKENYTVEVERQGNTWTVKRITRT [G32N]
A. 3.26

Q. Now the same for EEKRQVKQVAKEKLLEQSPNSKVQVRRVQKQGNTIRVELELRTNGKKENYTVEVERQGNGWTVKRITRT [T60G]
A. 4.12

Q. Please do the same for EEKRQVKQVAKEKLLEQSPNSKVQVRRVQKQGNTIRVELELRTNGKKENYTVEVERQGNTPTVKRITRT [W61P] as well.
A. 1.94

Q. Same for EEKRQVKQVAKEKLLEQSPNSKVQVRRVQKQGNTIRVELELRTNGKKENYTVEVERQGNTWTVKRIYRT [T67Y]
A. 4.38

Q. Queued: EEKRQVKQVAKEKLIEQSPNSKVQVRRVQKQGNTIRVELELRTNGKKENYTVEVERQGNTWTVKRITRT [L15I]
A. 3.02

Q. Cool, now EEKRQVKQVAKEKLLEQSPNSKVQVRTVQKQGNTIRVELELRTNGKKENYTVEVERQGNTWTVKRITRT [R27T]
A. 3.37

Q. Try this variant too: EEKRQVKQVAKEKLLEQSPNSKVQVRRVQKQGNTIRVELELRTNGKKENYTVEVERQQNTWTVKRITRT [G58Q]
A. 3.5

Q. Could you do the same for EEKRQVKQVAKEKLLEQSPNSKVQVRRVQKQGNTINVELELRTNGKKENYTVEVERQGNTWTVKRITRT [R36N] , please?
A. 3.7

Q. Similarly, EEKRQVKQVAKEKLLEQSPNSKVQVRRVAKQGNTIRVELELRTNGKKENYTVEVERQGNTWTVKRITRT [Q29A] ?
A. 3.84

Q. Next entry: EEKRQVKQVAKEKLLEQSPNSKVQVRRVQKQGNTIRVELELRTNGKKENYTVEVERQGNTWTVKRGTRT [I66G]
A. 0.993

Q. What about EEKRQFKQVAKEKLLEQSPNSKVQVRRVQKQGNTIRVELELRTNGKKENYTVEVERQGNTWTVKRITRT [V6F] ?
A. 2.99

Q. Record: EEKDQVKQVAKEKLLEQSPNSKVQVRRVQKQGNTIRVELELRTNGKKENYTVEVERQGNTWTVKRITRT [R4D]
A. 3.98

Q. Let us now turn to EEKRQVGQVAKEKLLEQSPNSKVQVRRVQKQGNTIRVELELRTNGKKENYTVEVERQGNTWTVKRITRT [K7G]
A. 4.38

Q. Please answer likewise for EEKRQVKQVAKEKLLEQSPNSKVQVRRVQKQGNTIRVELELRTNGKKENYTVEYERQGNTWTVKRITRT [V54Y]
A. 2.94

Q. Let us now turn to EEKRQVKQVAKEKLLEQSPNSKVQVRRVQKQGNQIRVELELRTNGKKENYTVEVERQGNTWTVKRITRT [T34Q]
A. 3.38

Attribution: the MegaScale stability set (Tsuboyama et al. 2023)
